tested on: PC-3; assay: Cytotoxicity against human PC3 cells after 72 hrs by MTT assay; assay type: functional, cell-based; settings: PC-3, 72 h

{"mol": "C[C@]12CC[C@H](O)CC1=CC[C@@H]1[C@@H]2CC[C@]2(C)C(=C(/C#N)C(N)=O)/C(=C/c3ccc(F)cc3)C[C@@H]12", "IC50 [µM]": 14.6}
{"mol": "COc1cc(/C=C2\\C[C@H]3[C@@H]4CC=C5C[C@@H](O)CC[C@]5(C)[C@H]4CC[C@]3(C)\\C2=C(\\C#N)C(N)=O)cc(OC)c1OC", "IC50 [µM]": 12.2}
{"mol": "CC(=O)O[C@H]1CC[C@@]2(C)C(=CC[C@@H]3[C@@H]2CC[C@]2(C)C(=C(/C#N)C(N)=O)/C(=C/c4ccc(Cl)c(Cl)c4)C[C@@H]32)C1", "IC50 [µM]": 8.18}

----------
test system: SMMC-7721; assay: Cytotoxicity against human SMMC7721 cells after 72 hrs by MTT assay; type: functional, cell-based; details: SMMC-7721, 72 h
pIC50: −log10 of the molar value.
assayReadout: pIC50

{"compound": "C[C@]12CC[C@H](O)CC1=CC[C@@H]1[C@@H]2CC[C@]2(C)C(=C(/C#N)C(N)=O)/C(=C/c3ccc(Cl)c(Cl)c3)C[C@@H]12", "valueMeasured": 5.48}
{"compound": "CC(=O)O[C@H]1CC[C@@]2(C)C(=CC[C@@H]3[C@@H]2CC[C@]2(C)C(=C(/C#N)C(N)=O)/C(=C/c4ccc(Cl)c(Cl)c4)C[C@@H]32)C1", "valueMeasured": 5.59}
{"compound": "CC(=O)O[C@H]1CC[C@@]2(C)C(=CC[C@@H]3[C@@H]2CC[C@]2(C)C(=C(/C#N)C(N)=O)/C(=C/c4ccccc4F)C[C@@H]32)C1", "valueMeasured": 4.81}
{"compound": "CC(=O)O[C@H]1CC[C@@]2(C)C(=CC[C@@H]3[C@@H]2CC[C@]2(C)C(=C(/C#N)C(N)=O)/C(=C/c4cccs4)C[C@@H]32)C1", "valueMeasured": 4.69}
{"compound": "COc1cc(/C=C2\\C[C@H]3[C@@H]4CC=C5C[C@@H](OC(C)=O)CC[C@]5(C)[C@H]4CC[C@]3(C)\\C2=C(\\C#N)C(N)=O)cc(OC)c1OC", "valueMeasured": 5.55}
{"compound": "CC(=O)O[C@H]1CC[C@@]2(C)C(=CC[C@@H]3[C@@H]2CC[C@]2(C)C(=C(/C#N)C(N)=O)/C(=C/c4ccc(C(C)C)cc4)C[C@@H]32)C1", "valueMeasured": 5.03}
{"compound": "CC(=O)O[C@H]1CC[C@@]2(C)C(=CC[C@@H]3[C@@H]2CC[C@]2(C)C(=C(/C#N)C(N)=O)/C(=C/c4ccccc4)C[C@@H]32)C1", "valueMeasured": 5.30}
{"compound": "CC(=O)O[C@H]1CC[C@@]2(C)C(=CC[C@@H]3[C@@H]2CC[C@]2(C)C(=C(/C#N)C(N)=O)/C(=C/c4ccc(C)cc4)C[C@@H]32)C1", "valueMeasured": 4.73}
{"compound": "CC(=O)O[C@H]1CC[C@@]2(C)C(=CC[C@@H]3[C@@H]2CC[C@]2(C)C(=C(/C#N)C(N)=O)/C(=C/c4cccc(Cl)c4)C[C@@H]32)C1", "valueMeasured": 5.15}
{"compound": "CC(=O)O[C@H]1CC[C@@]2(C)C(=CC[C@@H]3[C@@H]2CC[C@]2(C)C(=C(/C#N)C(N)=O)/C(=C/c4ccccc4Cl)C[C@@H]32)C1", "valueMeasured": 4.74}
{"compound": "CC(=O)O[C@H]1CC[C@@]2(C)C(=CC[C@@H]3[C@@H]2CC[C@]2(C)C(=C(/C#N)C(N)=O)/C(=C/c4ccco4)C[C@@H]32)C1", "valueMeasured": 4.64}
{"compound": "COc1cc(/C=C2\\C[C@H]3[C@@H]4CC=C5C[C@@H](O)CC[C@]5(C)[C@H]4CC[C@]3(C)\\C2=C(\\C#N)C(N)=O)cc(OC)c1OC", "valueMeasured": 5.10}
{"compound": "C[C@]12CC[C@H](O)CC1=CC[C@@H]1[C@@H]2CC[C@]2(C)C(=C(/C#N)C(N)=O)/C(=C/c3ccccc3F)C[C@@H]12", "valueMeasured": 5.72}
{"compound": "O=c1[nH]cc(F)c(=O)[nH]1 [FLUOROURACIL]", "valueMeasured": 5.01}
{"compound": "COc1cccc(/C=C2\\C[C@H]3[C@@H]4CC=C5C[C@@H](O)CC[C@]5(C)[C@H]4CC[C@]3(C)\\C2=C(\\C#N)C(N)=O)c1", "valueMeasured": 5.22}
{"compound": "C[C@]12CC[C@H](O)CC1=CC[C@@H]1[C@@H]2CC[C@]2(C)C(=C(/C#N)C(N)=O)/C(=C/c3ccc(F)cc3)C[C@@H]12", "valueMeasured": 5.48}
{"compound": "CC(=O)O[C@H]1CC[C@@]2(C)C(=CC[C@@H]3[C@@H]2CC[C@]2(C)C(=C(/C#N)C(N)=O)/C(=C/c4ccc(F)cc4)C[C@@H]32)C1", "valueMeasured": 5.23}

----------
test system: MGC-803; test: Cytotoxicity against human MGC803 cells after 72 hrs by MTT assay; assay type: functional, cell-based; conditions: MGC-803, 72 h
Entries annotated with measured IC50
assayReadout: IC50 (µM)

{"mol": "CC(=O)O[C@H]1CC[C@@]2(C)C(=CC[C@@H]3[C@@H]2CC[C@]2(C)C(=C(/C#N)C(N)=O)/C(=C/c4ccc(Cl)c(Cl)c4)C[C@@H]32)C1", "subjectOfTest": "MGC-803", "assayReadout": "IC50", "unitInfo": "µM", "valueMeasured": 3.2}
{"mol": "CC(=O)O[C@H]1CC[C@@]2(C)C(=CC[C@@H]3[C@@H]2CC[C@]2(C)C(=C(/C#N)C(N)=O)/C(=C/c4ccc(C)cc4)C[C@@H]32)C1", "subjectOfTest": "MGC-803", "assayReadout": "IC50", "unitInfo": "µM", "valueMeasured": 8.1}
{"mol": "COc1cc(/C=C2\\C[C@H]3[C@@H]4CC=C5C[C@@H](OC(C)=O)CC[C@]5(C)[C@H]4CC[C@]3(C)\\C2=C(\\C#N)C(N)=O)cc(OC)c1OC", "subjectOfTest": "MGC-803", "assayReadout": "IC50", "unitInfo": "µM", "valueMeasured": 6.34}
{"mol": "COc1cccc(/C=C2\\C[C@H]3[C@@H]4CC=C5C[C@@H](O)CC[C@]5(C)[C@H]4CC[C@]3(C)\\C2=C(\\C#N)C(N)=O)c1", "subjectOfTest": "MGC-803", "assayReadout": "IC50", "unitInfo": "µM", "valueMeasured": 3.96}

----------
Entries annotated with measured IC50
test system: MGC-803; experiment: Cytotoxicity against human MGC803 cells after 72 hrs by MTT assay; type: functional, cell-based; conditions: MGC-803, 72 h

{"mol": "CC(=O)O[C@H]1CC[C@@]2(C)C(=CC[C@@H]3[C@@H]2CC[C@]2(C)C(=C(/C#N)C(N)=O)/C(=C/c4ccc(Br)cc4)C[C@@H]32)C1", "IC50": "2710 nM"}
{"mol": "C[C@]12CC[C@H](O)CC1=CC[C@@H]1[C@@H]2CC[C@]2(C)C(=C(/C#N)C(N)=O)/C(=C/c3ccccc3F)C[C@@H]12", "IC50": "2690 nM"}
{"mol": "CC(=O)O[C@H]1CC[C@@]2(C)C(=CC[C@@H]3[C@@H]2CC[C@]2(C)C(=C(/C#N)C(N)=O)/C(=C/c4ccccc4)C[C@@H]32)C1", "IC50": "3100 nM"}
{"mol": "C[C@]12CC[C@H](O)CC1=CC[C@@H]1[C@@H]2CC[C@]2(C)C(=C(/C#N)C(N)=O)/C(=C/c3ccc(Cl)c(Cl)c3)C[C@@H]12", "IC50": "5110 nM"}
{"mol": "COc1cccc(/C=C2\\C[C@H]3[C@@H]4CC=C5C[C@@H](OC(C)=O)CC[C@]5(C)[C@H]4CC[C@]3(C)\\C2=C(\\C#N)C(N)=O)c1", "IC50": "2190 nM"}
{"mol": "C[C@]12CC[C@H](O)CC1=CC[C@@H]1[C@@H]2CC[C@]2(C)C(=C(/C#N)C(N)=O)/C(=C/c3ccc(F)cc3)C[C@@H]12", "IC50": "5670 nM"}
{"mol": "CC(=O)O[C@H]1CC[C@@]2(C)C(=CC[C@@H]3[C@@H]2CC[C@]2(C)C(=C(/C#N)C(N)=O)/C(=C/c4ccccc4F)C[C@@H]32)C1", "IC50": "2990 nM"}
{"mol": "CC(=O)O[C@H]1CC[C@@]2(C)C(=CC[C@@H]3[C@@H]2CC[C@]2(C)C(=C(/C#N)C(N)=O)/C(=C/c4ccc(C(C)C)cc4)C[C@@H]32)C1", "IC50": "1090 nM"}
{"mol": "CC(=O)O[C@H]1CC[C@@]2(C)C(=CC[C@@H]3[C@@H]2CC[C@]2(C)C(=C(/C#N)C(N)=O)/C(=C/c4ccc(F)cc4)C[C@@H]32)C1", "IC50": "3110 nM"}
{"mol": "C[C@]12CC[C@H](O)CC1=CC[C@@H]1[C@@H]2CC[C@]2(C)C(=C(/C#N)C(N)=O)/C(=C/c3ccccc3Cl)C[C@@H]12", "IC50": "5130 nM"}
{"mol": "CC(=O)O[C@H]1CC[C@@]2(C)C(=CC[C@@H]3[C@@H]2CC[C@]2(C)C(=C(/C#N)C(N)=O)/C(=C/c4cccs4)C[C@@H]32)C1", "IC50": "150 nM"}
{"mol": "CC(=O)O[C@H]1CC[C@@]2(C)C(=CC[C@@H]3[C@@H]2CC[C@]2(C)C(=C(/C#N)C(N)=O)/C(=C/c4ccc(Cl)cc4)C[C@@H]32)C1", "IC50": "1540 nM"}

Hello, the source for this data is ChEMBL document CHEMBL2413073, in case you need it.
